Target: Voltage-gated inwardly rectifying potassium channel KCNH2 (Homo sapiens)
Experiment: Human Ether-a-go-go-Related Gene (hERG) channel small molecule antagonists: fluorescence cell-based qHTS assay (AID 1671200);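 also: hERG-expressing U2OS cells given a thallium stimulus after FluxOR II dye loading; % is scaled to controls: 0 for no effect and ±100 for the full control effect; nearly all actives have a fitted effect of over 50% in size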
Conditions: hERG-U2OS cells, FluxOR thallium flux fluorescence; series mostly up to 76.8 µM
Results filed as inconclusive are left out. Calls of active or inactive are those of the source. Calls follow the shape of the dose curve; as a rule, active = well fitted inhibition curve with a large enough effect in the repeat runs; inconclusive = weak or mixed curves; inactive = flat fitted curve, though single readings scatter.
QUANTITY_NAME: activity change, negative = inhibition

[[record]]
molecule = "COC(=O)C1CC(=O)C(C(=O)OC)CC1=O (stereo not given)"
study_target = "Voltage-gated inwardly rectifying potassium channel KCNH2 (Homo sapiens)"
quantity_name = "activity change, negative = inhibition"
observed_value = "0.39% [at 6.97 µM] (inactive)"

[[record]]
molecule = "OCCN(CCO)c1cccc(Cl)c1"
study_target = "Voltage-gated inwardly rectifying potassium channel KCNH2 (Homo sapiens)"
quantity_name = "activity change, negative = inhibition"
observed_value = "inactive"

[[record]]
molecule = "O=S(O)(O)=S"
study_target = "Voltage-gated inwardly rectifying potassium channel KCNH2 (Homo sapiens)"
quantity_name = "activity change, negative = inhibition"
observed_value = "-2.48% [at 6.97 µM] (inactive)"

[[record]]
molecule = "CC(C)(C)OC(=O)c1ccc(O)cc1"
study_target = "Voltage-gated inwardly rectifying potassium channel KCNH2 (Homo sapiens)"
quantity_name = "activity change, negative = inhibition"
observed_value = "inactive"

[[record]]
molecule = "O=C(O)Cc1ccc(Cl)cc1Cl"
study_target = "Voltage-gated inwardly rectifying potassium channel KCNH2 (Homo sapiens)"
quantity_name = "activity change, negative = inhibition"
observed_value = "inactive"


---

Test: qHTS assay for small molecule agonists of the p53 signaling pathway - cell viability (AID 651633);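 also: p53RE-bla HCT reporter cells with a stable beta-lactamase p53 reporter; % is scaled to controls: 0 for no effect and ±100 for the full control effect; nearly all actives have a fitted effect of over 30% in size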
Conditions: p53RE-bla HCT-116 viability, ATP luminescence, 16 h; series mostly up to 83.3 µM
Inconclusive results are not listed. The source made the active and inactive calls. The call rests on the fitted dose curve.
QUANTITY_NAME: activity change, negative = cytotoxicity

[[record]]
compound = "O=C(Nc1ccc(Cl)c(Cl)c1)C1CC1"
observed_value = "inactive"

[[record]]
compound = "NCCS"
observed_value = "inactive"

[[record]]
compound = "Nc1ccc([N+](=O)[O-])c(N)c1"
observed_value = "inactive"

[[record]]
compound = "COC(=O)[C@@H]1[C@H]2C[C@H]3c4[nH]c5ccccc5c4CCN3C[C@@H]2CC[C@@H]1O"
observed_value = "inactive"

[[record]]
compound = "CC(=O)c1sc(C)nc1C"
observed_value = "inactive"

[[record]]
compound = "Cc1ccc(C=O)cc1C"
observed_value = "inactive"

[[record]]
compound = "Oc1cn2c(n1)Nc1ccc(Cl)c(Cl)c1C2"
observed_value = "inactive"

[[record]]
compound = "O=C1O[C@@H]2[C@@H](O)[C@H](O)O[C@@H]2[C@H]1O"
observed_value = "inactive"

[[record]]
compound = "CC(=C(CCOC(=O)C(C)C)SSC(CCOC(=O)C(C)C)=C(C)N(C=O)Cc1cnc(C)nc1N)N(C=O)Cc1cnc(C)nc1N"
observed_value = "inactive"

[[record]]
compound = "O=P(O)(O)OP(=O)(O)O"
observed_value = "inactive"

[[record]]
compound = "CC(=O)CCCCn1c(=O)c2c(ncn2C)n(C)c1=O"
observed_value = "inactive"

[[record]]
compound = "CCCCCOC(=O)CCC"
observed_value = "inactive"

[[record]]
compound = "O=C(O)CCSSCCC(=O)O"
observed_value = "inactive"


The reported measurements were obtained from PubChem BioAssay (Tox21).
